All values here come from patent US20240233818.

- Tested on: T1, cynomolgus CD137 (cynomolgus monkey)
- T1 chain: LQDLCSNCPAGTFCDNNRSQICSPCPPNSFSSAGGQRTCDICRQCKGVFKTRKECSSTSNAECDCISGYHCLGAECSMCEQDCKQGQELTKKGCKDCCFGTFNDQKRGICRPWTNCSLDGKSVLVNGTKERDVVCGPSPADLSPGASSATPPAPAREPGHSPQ
- Assay method text: SPR
Outcome measure: pKd
Please treat pKd as minus the base-10 logarithm of the molar concentration.

Some binders with recorded pKd:
DART-G (CD137 arm) (antibody, V domains shown) VH: QVQLVQSGAEVKKPGASVKVSCKASGYTFTSYWINWVKQAPGQGLEWIGNIYPSDSYTNYNQKFKDKATITADKSTSTAYMELSSLRSEDTAVYYCTRDYGSSYSFDYWGQGTTVTVSS VL: DIQMTQSPSSLSASVGDRVTITCRPSQDISNYLNWYQQKPDKTVKLLIYYTSRLRSGVPSRFSGSGSGTDFTFTISSLQPEDIATYFCQQGDTLPYTFGQGTKLEIK = 6.94
DART-G3 (CD137 arm) (antibody, V domains shown) VH: QVQLVQSGAEVKKPGASVKVSCKASGYTFTSYWINWVKQAPGQGLEWIGNIYPSDSYTNYNQKFKDKATITADKSTSTAYMELSSLRSEDTAVYYCTRDYGSAYSYSLWGQGTTVTVSS VL: DIQMTQSPSSLSASVGDRVTITCRPSQDISNYLNWYQQKPDKTVKLLIYYTSRLRSGVPSRFSGSGSGTDFTFTISSLQPEDIATYFCQQGDTLPYTFGQGTKLEIK = 7.11

The reported pKd of the binder DART-G4 (CD137 arm) (antibody, V domains shown) VH: QVQLVQSGAEVKKPGASVKVSCKASGYTFTSYWINWVKQAPGQGLEWIGNIYPSDSYTNYNQKFKDKATITADKSTSTAYMELSSLRSEDTAVYYCTRDYGSSYSYNVWGQGTTVTVSS VL: DIQMTQSPSSLSASVGDRVTITCRPSQDISNYLNWYQQKPDKTVKLLIYYTSRLRSGVPSRFSGSGSGTDFTFTISSLQPEDIATYFCQQGDTLPYTFGQGTKLEIK was 7.40

What the record says about DART-D (CD137 arm) (antibody, V domains shown) VH: QVQLQQPGAELVRPGASVKLSCKASGYTFTSYWINWVKQRPGQGLEWIGNIYPSDSYTNYNQKFKDKATLTVDKSSSTAYMQLSSPTSEDSAVYYCTRDYGSSYSFDYWGQGTTLTVSS VL: DIQMTQTTSSLSASLGDRVTISCRPSQDISNYLNWYQQKPDGTVKLLIYYTSRLRSGVPSRFSGSGSGTDYSLTISNLEQEDIATYFCQQGDTLPYTFGGGTKLEIK : pKd is 7.17
